Assay: yeast display, Sf9 membrane polyspecificity reagent, FACS + sequencing; frameworks hold sequencing errors
reported endpoint: polyreactivity (PSR sort gate)

- input sequence: "QVQLVESGGGLVQAGGSLRLSCAASGRTIASYTMGWYRQAPGKERELVAAISKSGGSTYYADSVKGRFTISRDNAKNTVYLQMNSLKPEDTAVYYCAKRRSGNVRKYDYWGQGTQVTVSS"
  polyreactivity (PSR sort gate): "high polyreactivity"
- input sequence: "QVQLVESGGGLVQAGGSLRLTCAASGSTFYHNAMGWYRQAPGKERELVAAITTSGGSTYYADSVKGRFTISRDNAKNTVYLQMNSLKPVDTAVYYCNVYRPYLAPYDYWGQGTQVTVSS"
  polyreactivity (PSR sort gate): "low polyreactivity"
- input sequence: "QVQLVESGGGLVQAGGSLRLSCAASGRTNSFYAMGWYRQAPGKERELVAAISRGGTTNYADSVKGRFTISRDNAKNTVYLQMNSLKPEDTAVYYCAASYFRRGFYSIYEYDYWGQGTQVTVSS"
  polyreactivity (PSR sort gate): "low polyreactivity"
- input sequence: "QFQLVDSGGGLVHAGGSRSLSCADSGLIFHNNAMGWYRQAPGKEREFVARITRSGGTTYYADSVKGRFTISRDNAKNTVYLQMNSLKPEDTAVYYCAAEQSVSFLVFTGFKFDYWGQGTHVTVSS"
  polyreactivity (PSR sort gate): "low polyreactivity"
- input sequence: "QVQLVESGGGLVQAGGSLRLSCAASGSTFGYYTMGWYRQAPGKERELVAALTWSGGSTYYADSVKGRFTISRDNAKNTVYLQMNSLKPEDTAVYYCAADDYWTPFGYWGQGSQVTVSS"
  polyreactivity (PSR sort gate): "low polyreactivity"
- input sequence: "QVQLVESGGGLVQAGGSLRLSCAASGSIFLKYVMGWYRQAPGKERELVAAISFRSGSTYYADSVKGRFTISRDNAKNTVYLQMNSLKPEDTAVYYCAADAWRSYGYRAYDYWGQGTQVTVSS"
  polyreactivity (PSR sort gate): "high polyreactivity"
- input sequence: "QVQLVESGGGLVQAGGSLRLSCAASGSTFGWYAMGWYRQAPGKERELVAAITSVGSTYYADYVKGRFTISRDNAKNTVYLQMNSLKPEDTAVYYCANRFGYGWAWFGYWGQGTQVTVSS"
  polyreactivity (PSR sort gate): "low polyreactivity"
- input sequence: "QVQMQESGGGLVLAGGSLRLSCASSGSISAQAYMGWDRQAPGKEREHVAGINYGDNTNYADSVKGRFTISRDNEHRVSADEQPETGRYRGVLLRGFLELFYYYIYWGQGTQVTVSS"
  polyreactivity (PSR sort gate): "high polyreactivity"

Q: Report polyreactivity (PSR sort gate) for QVQLVESGGGLDQAGGSLRLSCAASGRTFYYNAMGWYRQAPGKERELVADINWSGVRTYYADSVKGRFTISRDNAKNTVYLQMNSLKPEDTAVYYCAARYRTLTKYYWGQGTQVTVSS
Result: low polyreactivity

Q: Read off the recorded polyreactivity (PSR sort gate) for PVQLVDSGGGLVQAGGSLRLSCAASGSIFYRNALGWYRQAPGKERELVAAISGRGGSTNYADSVKGRFTISRDNAKNTVYLQMNSLKPEDTAVYYCNRYGVANILVRGGYWGQGTQVTVSA
Result: high polyreactivity

Q: Please supply the value of reported polyreactivity (PSR sort gate) for the item QVQLVESGGGLVQAGGSLRLSCGASGYISVGYAMGWYRPAPGKERELVAAITESGGSTYYADSVKGRFTISRDNAKNTVYLQMNSLKPEDSAVYYCAADVIYEDSMDYWGQGTQVTVSS
Result: low polyreactivity
